Target: T1, CLDN6 endogenously expressed by human cancer cell lines (ARK2, OVCA429) (human, UniProt P56747 1-220)
T1 construct: Untagged endogenous protein; also called Endogenous CLDN6+
T1 sequence: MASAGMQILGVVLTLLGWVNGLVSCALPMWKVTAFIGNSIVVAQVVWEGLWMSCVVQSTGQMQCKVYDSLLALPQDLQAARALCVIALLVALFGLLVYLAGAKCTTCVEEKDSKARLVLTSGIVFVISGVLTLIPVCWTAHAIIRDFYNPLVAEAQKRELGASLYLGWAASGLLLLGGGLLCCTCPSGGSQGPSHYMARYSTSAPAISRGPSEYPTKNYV
Assay: FACS, 1.5 µg Ab, OVCA429 cells
Threshold rule: FACS fluorescence greater than or equal to 3000 is rule met; below that, rule not met.

Reference set (3 entries):
binder | category
AB4-chim (antibody, V domains shown, 'chim' is the pre-humanized form (parental variable regions); also called pre-humanized (chimeric) form of AB4) VH: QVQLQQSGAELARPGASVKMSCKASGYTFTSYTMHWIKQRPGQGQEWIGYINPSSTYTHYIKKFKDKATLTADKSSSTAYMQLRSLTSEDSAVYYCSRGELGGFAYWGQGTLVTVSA VL: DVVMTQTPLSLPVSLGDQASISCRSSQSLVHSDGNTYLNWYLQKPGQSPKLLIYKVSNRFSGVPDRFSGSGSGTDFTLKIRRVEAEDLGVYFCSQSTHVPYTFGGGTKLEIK | rule met
AB4-3 (antibody, V domains shown, also called Humanized AB 4-3) VH: QVQLVQSGAEVKKPGASVKVSCKASGYTFTSYTMHWVRQAPGQGLEWMGYINPSSTYTHYAQKFQGRVTMTADTSTSTVYMELSSLRSEDTAVYYCSRGELGGFAYWGQGTLVTVSS VL: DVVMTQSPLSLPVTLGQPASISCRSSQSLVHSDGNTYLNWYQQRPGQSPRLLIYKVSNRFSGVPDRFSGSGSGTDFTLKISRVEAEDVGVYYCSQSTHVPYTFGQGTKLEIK | rule not met
AB11-2 (antibody, V domains shown, also called Humanized AB 11-2) VH: EVQLVESGGGLVQPGGSLRLSCAASGFTFSSFGMHWVRQAPGKGLEWVAYISSDSRTIYYADSVKGRFTISRDNAKNSLYLQMNSLRAEDTAVYYCARDYGRTYEAYWGQGTLVTVSS VL: DIVMTQSPDSLAVSLGERATINCRASKSVSTSGYSYIHWYQQKPGQPPKLLIYLASNLESGVPDRFSGSGSGTDFTLTISSLQAEDVAVYYCQHSRELPLTFGQGTKLEIK | rule not met

Determine whether this binder has FACS fluorescence no lower than 3000: AB1-Chim (antibody, V domains shown, 'chim' is the pre-humanized form (parental variable regions); also called pre-humanized (chimeric) form of AB1) VH: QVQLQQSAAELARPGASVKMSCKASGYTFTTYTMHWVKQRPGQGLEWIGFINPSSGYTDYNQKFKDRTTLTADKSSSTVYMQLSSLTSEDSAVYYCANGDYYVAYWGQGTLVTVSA VL: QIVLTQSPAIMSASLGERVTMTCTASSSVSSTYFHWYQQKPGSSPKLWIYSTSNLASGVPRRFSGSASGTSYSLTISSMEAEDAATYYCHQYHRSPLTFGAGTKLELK rule met
